- protocolDetails: Selectivity index, ratio of CC50 for human HepG2 cells to EC50 for metronidazole sensitive Giardia lamblia WB trophozoites

>  <molecule>
CN(CCO)C(=O)c1ncc([N+](=O)[O-])[nH]1

>  <Ratio CC50/EC50>
>4

$$$$
>  <molecule>
O=C(c1ncc([N+](=O)[O-])[nH]1)N1CCOCC1

>  <Ratio CC50/EC50>
>11

$$$$
>  <molecule>
O=C(c1ncc([N+](=O)[O-])[nH]1)N1CCCC1

>  <Ratio CC50/EC50>
>29

$$$$
>  <molecule>
Cn1c([N+](=O)[O-])cnc1C(=O)NCc1ccccn1

>  <Ratio CC50/EC50>
>63

$$$$
>  <molecule>
Cc1ccc(CCNC(=O)c2ncc([N+](=O)[O-])[nH]2)cc1

>  <Ratio CC50/EC50>
>1000

$$$$
>  <molecule>
CN(C)C(=O)c1ncc([N+](=O)[O-])n1C

>  <Ratio CC50/EC50>
>42

$$$$
>  <molecule>
CN(C)C(=O)c1ncc([N+](=O)[O-])[nH]1

>  <Ratio CC50/EC50>
>12

$$$$
>  <molecule>
Cn1c([N+](=O)[O-])cnc1C(=O)NCc1ccc(F)cc1

>  <Ratio CC50/EC50>
>29

$$$$
>  <molecule>
O=C(NC1CCCCC1)c1ncc([N+](=O)[O-])[nH]1

>  <Ratio CC50/EC50>
>167

$$$$
>  <molecule>
Cc1ccc(CCNC(=O)c2ncc([N+](=O)[O-])n2C)cc1

>  <Ratio CC50/EC50>
>36

$$$$
>  <molecule>
Cn1c([N+](=O)[O-])cnc1C(=O)N1CCOCC1

>  <Ratio CC50/EC50>
>63

$$$$
>  <molecule>
Cn1c([N+](=O)[O-])cnc1C(=O)NC1CC1

>  <Ratio CC50/EC50>
>29

$$$$
>  <molecule>
O=C(NC1CC1)c1ncc([N+](=O)[O-])[nH]1

>  <Ratio CC50/EC50>
>20

$$$$
>  <molecule>
CNC(=O)c1nc([N+](=O)[O-])cn1Cc1ccc(OC(F)(F)F)cc1

>  <Ratio CC50/EC50>
>29

$$$$
>  <molecule>
NC(=O)c1nc([N+](=O)[O-])cn1Cc1ccccn1

>  <Ratio CC50/EC50>
>3.7

$$$$
>  <molecule>
CC(NC(=O)c1ncc([N+](=O)[O-])n1C)c1ccc(F)cc1 (stereo not drawn)

>  <Ratio CC50/EC50>
>34

$$$$
>  <molecule>
Cn1c([N+](=O)[O-])cnc1C(=O)NC1CCCCC1

>  <Ratio CC50/EC50>
>20

$$$$
>  <molecule>
CCOC(=O)c1nc([N+](=O)[O-])cn1Cc1ccc(OC(F)(F)F)cc1

>  <Ratio CC50/EC50>
>17

$$$$
